pIC50: −log10 of the molar value.
Notes on pIC50 obtained with UniProt:P0DTD1.

What reported pIC50 corresponds to C[C@H](OC(=O)N[C@@H](CC(C)(C)C)C(=O)N1C[C@]2(C[C@H]1C#N)C(=O)Nc1ccc(F)cc12)c1ccc(F)cc1 [Example 524] on UniProt:P0DTD1?
> 7.00

What reported pIC50 corresponds to CC(C)(C)C[C@H](NC(=O)OC(C)(C)c1ccc(F)cc1)C(=O)N1C[C@]2(C[C@H]1C#N)C(=O)Nc1ccc(Cl)cc12 [Example 496] on UniProt:P0DTD1?
< 6.00

More entries:
What reported pIC50 corresponds to CC(C)C[C@@H](C(=O)N1C[C@]2(C[C@H]1C#N)C(=O)Nc1ccccc12)N(C)C(=O)c1ccn(C)n1 [Example 204] on UniProt:P0DTD1?
6.00 to 7.00
